- assay-comment: Long-term storage stability of antibiotics in combination with fosfomycin spiked in plasma/CAMHB (−30 °C, −80 °C)
- Assay type: physicochemical
- applied-conditions: plasma, combination with fosfomycin, 4 weeks at -80 °C; MQC (nominal as E14)
readout-label: Mean accuracy (%), Table S14

CO/N=C(\C(=O)N[C@@H]1C(=O)N2C(C(=O)[O-])=C(C[N+]3(C)CCCC3)CS[C@H]12)c1csc(N)n1 [Cefepime, cefepime]: 101.3
NC(=O)[C@@H]1CC[C@@H]2CN1C(=O)N2OS(=O)(=O)O [Avibactam, avibactam]: 94.5
C[C@@H]1O[C@@H]1P(=O)(O)O [Fosfomycin, fosfomycin]: 90.6
C[C@@H](O)[C@H]1C(=O)N2C(C(=O)O)=C(S[C@@H]3CN[C@H](C(=O)N(C)C)C3)[C@H](C)[C@H]12 [Meropenem, meropenem]: 95.2
C[C@]1(Cn2ccnn2)[C@H](C(=O)O)N2C(=O)C[C@H]2S1(=O)=O [Tazobactam, tazobactam]: 101.3
C[C@H]1[C@H](NC(=O)/C(=N\OC(C)(C)C(=O)O)c2csc(N)n2)C(=O)N1S(=O)(=O)O [Aztreonam, aztreonam]: 101.4
CC(C)(O/N=C(\C(=O)N[C@@H]1C(=O)N2C(C(=O)[O-])=C(C[n+]3ccccc3)CS[C@H]12)c1csc(N)n1)C(=O)O [Ceftazidime, ceftazidime]: 103.0

Sourced from paper PMC8772704
